Values were extracted from ChEMBL document CHEMBL1201862.

test system: SK-MEL-28; experiment: NCI tumour cell line growth inhibition, 48 h
Structures can show the parent of a compound that is named as a salt. Active and inactive are the calls of the source. Rule as the data show it: active = GI50 up to about 1.1 µM and inactive = higher.
ENDPOINT: GI50

{"COMPOUND": "N#Cc1c(=O)c2ccccc2n2c1[nH]c1ccccc12", "ENDPOINT RESULT": "52.2 µM (inactive)"}
{"COMPOUND": "CN(C)C(=S)NC(=S)Nc1ccc2ccccc2c1", "ENDPOINT RESULT": "14.5 µM (inactive)"}
{"COMPOUND": "Cc1nc2ccc(S(=O)(=O)O)cc2c(=O)n1-c1ccc(C(=O)NN2C(=O)C(Cl)C2c2ccccc2O)cc1 (centres undefined)", "ENDPOINT RESULT": "> 100 µM (inactive)"}
{"COMPOUND": "Cc1cc(C)nc(NS(=O)(=O)c2ccc(Nc3c4ccccc4nc4c(C(=O)NC(CO)(CO)CO)cccc34)cc2)n1", "ENDPOINT RESULT": "27.1 µM (inactive)"}
{"COMPOUND": "COc1cc(C(=O)C/C(CCC(=O)Nc2ccccc2[N+](=O)[O-])=N\\NC(=O)C(N)=O)ccc1O", "ENDPOINT RESULT": "> 100 µM (inactive)"}
{"COMPOUND": "CC(=O)OCC1OC(n2c(-c3ccc(C)cc3)cc(-c3ccccc3)c(C#N)c2=O)C(OC(C)=O)C(OC(C)=O)C1OC(C)=O (centres undefined)", "ENDPOINT RESULT": "> 100 µM (inactive)"}
{"COMPOUND": "CC(=O)OC12c3ccccc3-c3ccccc3C1C(C(=O)O)C2(Cl)C(=O)O (centres undefined)", "ENDPOINT RESULT": "> 10 µM (inactive)"}
{"COMPOUND": "O=c1sc(-c2nc3ccccc3[nH]2)c(/N=C/c2ccccc2)n1-c1ccccc1", "ENDPOINT RESULT": "> 100 µM (inactive)"}
{"COMPOUND": "Oc1ccc(C(O)C2CCCCN2)cc1O (centres undefined) [RIMITEROL HYDROBROMIDE]", "ENDPOINT RESULT": "> 100 µM (inactive)"}
